Test system: β-catenin/Tcf-4
METHOD SUMMARY: cells
Type: cell-based
PARTICULARS: Homo sapiens, SW480, 24 h, Tcf 33.13 cells derived from SW480; 24 hours of incubation with compound; ratio Firefly/Renilla luciferase
Kindly state IC50 for each of the entries shown.
Give bare numbers, in nM.

Example entries begin here.
- O=C(Nc1ccc(CNc2nc(N3CCCCC3)nc3ccccc23)cc1)c1ccc(F)cc1 [Example 123]: 2930
- CNc1nc(NCc2ccc(NC(=O)c3ccc(Cl)nc3)cc2)c2cc(C)cc(C)c2n1 [Example 23]: 1720
- C/C=C/c1ccc2c(NCc3ccc(NC(=O)C4CCN(Cc5ccccc5)CC4)cc3)nc(N(C)C)nc2c1 [Example 151]: 726
- CCCCN1CCC(C(=O)Nc2ccc(CNc3nc(N(C)C)nc4cc(C)ccc34)cc2)CC1 [Example 249]: 1170

Look up IC50 for the entries below, preserving their order.
1. Cc1ccc2c(NCc3ccc(NC(=O)C4CCN(Cc5ccccc5)CC4)cc3)nc(N3CCNC(CCO)C3)nc2c1 (stereo not shown) [Example 138]
2. CNc1nc(NCc2ccc(NC(=O)c3ccc(Cl)cc3)cc2)c2cc(C)cc(C)c2n1 [Example 29]

1. 2120
2. 756

---

Where a name gives a salt, the structure may show the parent alone.
ENDPOINT: melting point

Example entries begin here.
* CNc1nc(NCc2ccc(NC(=O)c3ccc(Cl)nc3)cc2)c2cc([N+](=O)[O-])ccc2n1 [Example 184] | 305 to 307 °C
* Cc1ccc2c(NCc3ccc(NC(=O)C4CCN(Cc5ccccc5)CC4)cc3)nc(N3CCCC3)nc2c1 [Example 133] | 96 °C

// moving on: another record for melting point
Name the recorded melting point for Cc1ccc2c(NCc3ccc(NC(=O)c4ccc(Cl)nc4)cc3)nc(N(C)C)nc2c1 (as salt: hydrochloride) [Example 242] . 325 to 329 °C

---

System: β-catenin/Tcf-4
METHOD SUMMARY: cells
Type: cell-based
PARTICULARS: Homo sapiens, SW480, 24 h, Tcf 33.13 cells derived from SW480; 24 hours of incubation with compound; ratio Firefly/Renilla luciferase
Kindly state IC50 for each of the entries shown.
Numbers only, in nM.

Example entries begin here.
- O=C(Nc1ccc(CNc2nc(N3CCN(c4ncccn4)CC3)nc3ccc(C(F)(F)F)cc23)cc1)c1ccc(Cl)cc1: 4310
- Cc1ccc2nc(N3CCCCC3)nc(NCc3ccc(NC(=O)c4ccc(F)cc4)cc3)c2c1: 2940
- O=C(Nc1ccc(CNc2nc(N3CCCC3)nc3ccccc23)cc1)c1ccc(F)cc1: 1270

Name the recorded IC50 for Cc1ccc2c(NCc3ccc(NC(=O)c4ccc(F)cc4)cc3)nc(N3CCN(CC(=O)N4CCCC4)CC3)nc2c1 . 1390

---

Tested on: β-catenin/Tcf-4
METHOD SUMMARY: cells
Format: cell-based
PARTICULARS: Tcf 33.13 cells derived from SW480; 24 hours of incubation with compound; ratio Firefly/Renilla luciferase
Protocol: Background cell line: SW480 colorectal carcinoma DNA constructs: 1) Tcf-4-Luc: Tcf-4 binding sites driving Firefly Luciferase in the pGL3 vector—to measure the activity of β-catenin/Tcf-4; […] Assay Readout: The luciferase signal was detected using a luciferase detection kit from Promega. […] Firefly substrate was then added and the resulting luminescence was immediately read on a CCD camera imaging device or a luminometer. […] Renilla luciferase was then quantified using the CCD camera or luminometer. […]
ENDPOINT: IC50

- CN(C)c1nc(NCc2ccc(C(=O)Nc3ccc(F)cc3)cc2)c2cc(-c3ccc(/C=C/c4ccccc4)cc3)ccc2n1 [Example 173]: 4480 nM

Look up IC50 for the entries below, preserving their order.
1. CCCC/C=C/c1ccc2nc(N(C)C)nc(NCc3ccc(C(=O)Nc4ccc(F)cc4)cc3)c2c1 [Example 175]
2. CNc1nc(NCc2ccc(NC(=O)C3CCN(Cc4ccc(F)cc4)CC3)cc2)c2cc(C(F)(F)F)ccc2n1 [Example 160]
3. C/C=C/c1ccc2nc(N(C)C)nc(NCc3ccc(C(=O)Nc4ccc(F)cc4)cc3)c2c1 [Example 174]
4. Cc1ccc2nc(N(C)C)nc(NCc3ccc(NC(=O)c4ccc(F)cc4)cc3)c2c1 [Example 38]
5. Cc1ccc2nc(N(C)C)nc(NCc3ccc(NC(=O)c4ccc(F)cc4)cc3)c2c1 [Example 40]
6. CN(C)c1nc(NCc2ccc(NC(=O)c3ccc(F)cc3)cc2)c2cc(/C=C\c3ccccc3)ccc2n1 [Example 171]

1: 537 nM; 2: > 2210 nM; 3: 359 nM; 4: 2050 nM; 5: 2050 nM; 6: 4280 nM
